# Test system: Es-2
# TEST DETAILS: Primary qHTS to identify gynecologic anti-cancer compounds using libraries of approved drugs and bioactive compounds (AID 1345084); further: on the % scale 0 is the no-effect control and ±100 the full control effect; nearly all actives have a fitted effect of over 55% in size
# TEST PARAMETERS: Gynecologic cancer cell panel viability, ATPlite luminescence, 48 h; series mostly up to 57.5 µM
Results filed as inconclusive are left out. Active and inactive are the calls of the source. The call rests on the fitted dose curve; in most records, active means well fitted cell-killing curve with a large enough effect; inconclusive means small, poorly fitted or top-dose-only effect, or effect the other way; inactive means flat fitted curve, though single readings scatter.
ASSAY ENDPOINT: activity change, negative = cytotoxicity

• CC[C@H]1OC(=O)[C@H](C)[C@@H](O[C@H]2C[C@@](C)(OC)[C@@H](O)[C@H](C)O2)[C@H](C)[C@@H](O[C@@H]2O[C@H](C)C[C@H](N(C)C)[C@H]2O)[C@@](C)(O)C[C@@H](C)[C@@H]2N[C@@H](COCCOC)OC([C@H]2C)[C@]1(C)O = inactive
• CCOc1ccc(C(Nc2ccccn2)c2ccc3ccc(C)nc3c2O)cc1C (stereo unspecified) = inactive
• C=C[C@@]1(C)CC(=O)C2[C@](C)(O1)[C@@H](OC(C)=O)[C@@H](O)[C@H]1C(C)(C)CCC[C@]21C (stereo partly specified) = 1.29% [at 11.6 µM] (inactive)
• CC(C)C1=CCC(C)(O)C(OC2OC(CO)C(O)C(O)C2O)C1 (stereo unspecified) = inactive
• Cc1cc(O)c(C(C)C)cc1O[C@@H]1O[C@H](CO)[C@@H](O)[C@H](O)[C@H]1O = inactive

Quick one: activity change, negative = cytotoxicity for C=C1C(O[C@@H]2O[C@H](CO)[C@@H](O)[C@H](O)[C@@H]2O)CC2C(C)(C)C(O)CCC2(C)C1CC/C(C)=C\CO (stereo partly specified) ?
inactive
